test: total protein half-life in vivo (active degradation + dilution); higher = more stable protein; conditions: wild type E. coli NCM3722; growth: P-lim chemostat; doubling time 6 h

PRIMARY SEQUENCE: MRTLQGWLLPVFMLPMAVYAQEATVKEVHDAPAVRGSIIANMLQEHDNPFTLYPYDTNYLIYTQTSDLNKEAIASYDWAENARKDEVKFQLSLAFPLWRGILGPNSVLGASYTQKSWWQLSNSEESSPFRETNYEPQLFLGFATDYRFAGWTLRDVEMGYNHDSNGRSDPTSRSWNRLYTRLMAENGNWLVEVKPWYVVGNTDDNPDITKYMGYYQLKIGYHLGDAVLSAKGQYNWNTGYGGAELGLSYPITKHVRLYTQVYSGYGESLIDYNFNQTRVGVGVMLNDLF [P0A921]
total protein half-life in vivo, h: 6.13

PRIMARY SEQUENCE: MKLRDSLAENKSIRLQAEAETWQEAVKIGVDLLVAADVVEPRYYQAILDGVEQFGPYFVIAPGLAMPHGRPEEGVKKTGFSLVTLKKPLEFNHDDNDPVDILITMAAVDANTHQEVGIMQIVNLFEDEENFDRLRACRTEQEVLDLIDRTNAAA
total protein half-life in vivo, h: 4.94

PRIMARY SEQUENCE: MTKQVKIYHNPRCSKSRETLNLLKENGVEPEVVLYLETPADAATLRDLLKILGMNSARELMRQKEDLYKELNLADSSLSEEALIQAMVDNPKLMERPIVVANGKARIGRPPEQVLEIVG
total protein half-life in vivo, h: 3.87

PRIMARY SEQUENCE: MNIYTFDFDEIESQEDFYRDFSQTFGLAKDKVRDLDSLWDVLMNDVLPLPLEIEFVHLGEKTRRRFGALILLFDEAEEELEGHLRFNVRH
total protein half-life in vivo, h: 4.26

====

assay: total protein half-life in vivo (active degradation + dilution); higher = more stable protein; settings: wild type E. coli NCM3722; growth: P-lim chemostat; doubling time 12 h

PRIMARY SEQUENCE: MAYFLDFDERALKEWRKLGSTVREQLKKKLVEVLESPRIEANKLRGMPDCYKIKLRSSGYRLVYQVIDEKVVVFVISVGKRERSEVYSEAVKRIL [P0C077]
total protein half-life in vivo (h): 11.3
//
PRIMARY SEQUENCE: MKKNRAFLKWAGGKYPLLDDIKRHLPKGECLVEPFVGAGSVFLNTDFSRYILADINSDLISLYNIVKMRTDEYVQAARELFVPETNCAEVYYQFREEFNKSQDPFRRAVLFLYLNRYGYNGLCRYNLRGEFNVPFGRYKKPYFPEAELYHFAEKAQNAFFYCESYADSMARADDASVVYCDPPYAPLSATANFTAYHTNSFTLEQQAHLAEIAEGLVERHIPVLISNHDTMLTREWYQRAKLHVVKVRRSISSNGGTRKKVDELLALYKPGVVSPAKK [P0AEE8]
total protein half-life in vivo (h): 10.9

====

assay: total protein half-life in vivo (active degradation + dilution); higher = more stable protein; conditions: E. coli NCM3722 delta-smpB; growth: N-lim chemostat; doubling time 6 h
Entry flag: MET if total protein half-life in vivo reaches 4 h; NOT MET if it does not.

PRIMARY SEQUENCE: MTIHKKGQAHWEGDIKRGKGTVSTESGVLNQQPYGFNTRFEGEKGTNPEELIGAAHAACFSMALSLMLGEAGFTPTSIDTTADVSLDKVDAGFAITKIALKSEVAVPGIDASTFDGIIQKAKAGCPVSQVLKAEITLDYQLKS [P0C0L2]
QUALITATIVE LABEL: MET
--
PRIMARY SEQUENCE: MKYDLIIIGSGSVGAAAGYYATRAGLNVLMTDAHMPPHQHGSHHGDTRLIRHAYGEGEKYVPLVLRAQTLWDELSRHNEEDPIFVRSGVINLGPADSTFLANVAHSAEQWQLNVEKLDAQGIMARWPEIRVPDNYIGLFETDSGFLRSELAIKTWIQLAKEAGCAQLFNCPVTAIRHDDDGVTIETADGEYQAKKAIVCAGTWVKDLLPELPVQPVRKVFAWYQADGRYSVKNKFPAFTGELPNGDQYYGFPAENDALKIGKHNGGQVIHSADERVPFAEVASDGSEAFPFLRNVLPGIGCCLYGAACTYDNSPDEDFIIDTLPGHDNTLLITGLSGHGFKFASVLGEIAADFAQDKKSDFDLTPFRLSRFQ
QUALITATIVE LABEL: NOT MET
--
PRIMARY SEQUENCE: MTDNNTALKKAGLKVTLPRLKILEVLQEPDNHHVSAEDLYKRLIDMGEEIGLATVYRVLNQFDDAGIVTRHNFEGGKSVFELTQQHHHDHLICLDCGKVIEFSDDSIEARQREIAAKHGIRLTNHSLYLYGHCAEGDCREDEHAHEGK [P0A9A9]
QUALITATIVE LABEL: NOT MET
--
PRIMARY SEQUENCE: MKVLTVFGTRPEAIKMAPLVHALAKDPFFEAKVCVTAQHREMLDQVLKLFSIVPDYDLNIMQPGQGLTEITCRILEGLKPILAEFKPDVVLVHGDTTTTLATSLAAFYQRIPVGHVEAGLRTGDLYSPWPEEANRTLTGHLAMYHFSPTETSRQNLLRENVADSRIFITGNTVIDALLWVRDQVMSSDKLRSELAANYPFIDPDKKMILVTGHRRESFGRGFEEICHALADIATTHQDIQIVYPVHLNPNVREPVNRILGHVKNVILIDPQEYLPFVWLMNHAWLILTDSGGIQEEAPSLGKPVLVMRDTTERPEAVTAGTVRLVGTDKQRIVEEVTRLLKDENEYQAMSRAHNPYGDGQACSRILEALKNNRISL
QUALITATIVE LABEL: NOT MET

====

experiment: total protein half-life in vivo (active degradation + dilution); higher = more stable protein; conditions: wild type E. coli NCM3722; growth: N-lim chemostat; doubling time 6 h

PRIMARY SEQUENCE: MPTKPPYPREAYIVTIEKGKPGQTVTWYQLRADHPKPDSLISEHPTAQEAMDAKKRYEDPDKE [P0AAN5]
total protein half-life in vivo: 4.1 h
//
PRIMARY SEQUENCE: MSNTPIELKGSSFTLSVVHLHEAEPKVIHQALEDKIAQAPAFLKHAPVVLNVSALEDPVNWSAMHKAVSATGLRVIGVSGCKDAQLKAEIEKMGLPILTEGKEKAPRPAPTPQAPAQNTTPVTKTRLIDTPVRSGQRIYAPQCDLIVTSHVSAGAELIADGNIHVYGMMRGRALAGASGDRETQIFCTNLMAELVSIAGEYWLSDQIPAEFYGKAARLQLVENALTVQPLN
total protein half-life in vivo: 5.25 h
//
PRIMARY SEQUENCE: MSEKVVFSQLSRKFIDENDATPAEAQQVVYYSLAIGHHLGVIDCLEAALTCPWDEYLAWIATLEAGSEARRKMEGVPKYGEIVIDINHVPMLANAFDKARAAQTSQQQEWSTMLLSMLHDIHQENAIYLMVRRLRD [P0AEV7]
total protein half-life in vivo: 2.24 h
//
PRIMARY SEQUENCE: MDKFDANRRKLLALGGVALGAAILPTPAFATLSTPRPRILTLNNLHTGESIKAEFFDGRGYIQEELAKLNHFFRDYRANKIKSIDPGLFDQLYRLQGLLGTRKPVQLISGYRSIDTNNELRARSRGVAKKSYHTKGQAMDFHIEGIALSNIRKAALSMRAGGVGYYPRSNFVHIDTGPARHW [P0AB06]
total protein half-life in vivo: 1.97 h
//
PRIMARY SEQUENCE: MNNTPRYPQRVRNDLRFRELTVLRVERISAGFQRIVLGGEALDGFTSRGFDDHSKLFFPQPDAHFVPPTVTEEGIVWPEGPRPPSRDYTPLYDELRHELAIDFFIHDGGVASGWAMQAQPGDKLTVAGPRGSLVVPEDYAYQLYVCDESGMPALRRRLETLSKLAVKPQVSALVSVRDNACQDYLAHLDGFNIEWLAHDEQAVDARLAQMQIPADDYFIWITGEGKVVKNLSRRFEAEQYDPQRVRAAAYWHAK
total protein half-life in vivo: 4.38 h
//
PRIMARY SEQUENCE: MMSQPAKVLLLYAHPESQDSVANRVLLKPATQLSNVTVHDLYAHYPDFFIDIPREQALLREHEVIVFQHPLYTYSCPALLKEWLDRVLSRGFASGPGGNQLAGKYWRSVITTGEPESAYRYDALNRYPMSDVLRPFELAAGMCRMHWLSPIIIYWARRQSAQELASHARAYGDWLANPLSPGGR [P0A756]
total protein half-life in vivo: 5.63 h
//
PRIMARY SEQUENCE: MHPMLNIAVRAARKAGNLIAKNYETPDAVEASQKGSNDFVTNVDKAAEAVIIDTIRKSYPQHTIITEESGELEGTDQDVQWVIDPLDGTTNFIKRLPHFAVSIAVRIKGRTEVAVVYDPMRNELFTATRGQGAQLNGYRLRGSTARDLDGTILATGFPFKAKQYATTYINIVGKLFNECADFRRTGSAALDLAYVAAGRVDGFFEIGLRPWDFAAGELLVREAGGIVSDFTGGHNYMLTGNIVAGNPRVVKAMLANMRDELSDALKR [P0ADG4]
total protein half-life in vivo: 5.53 h
